Target: MAGE-A11:PCF11 interaction (GST-MAGE-A11 and FAM-PCF11_4) (Homo sapiens)
Construct: GST-MAGE-A11 MHD (human MAGE-A11 MHD amino acid 218-429); made in house; host or cells: E. coli BL21(DE3)
Sequence (P43364 218-429): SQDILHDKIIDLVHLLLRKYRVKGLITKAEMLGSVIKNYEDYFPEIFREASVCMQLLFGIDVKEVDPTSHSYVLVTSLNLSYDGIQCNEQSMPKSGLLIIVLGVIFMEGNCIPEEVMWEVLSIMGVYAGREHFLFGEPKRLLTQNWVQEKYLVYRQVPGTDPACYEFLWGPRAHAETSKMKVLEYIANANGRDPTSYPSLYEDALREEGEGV
Experiment: TR-FRET primary / single point screen at 15 µM
Assay type: binding
Settings: single point TR-FRET screening of 797 quinoline compounds against MAGE-A11:PCF11
Procedure: The TR-FRET assay buffer with a formula of 50 mM Tris pH 7.5, 20 mM MgCl2, 0.1 mg/ml BSA and 1 mM DTT was freshly prepared before each experiment. […] After incubation, the fluorescent emission signals at 520 nm and 490 nm channels of individual wells were measured with a PHERAstar FS plate reader (BMG Labtech; Durham, NC, USA) by using a 340 nm excitation filter, 100 µs delay time, and 200 µs integration time. […] The TR-FRET signals for individual wells were measured with a PHERAstar FS plate reader. […]
Decision: percent inhibition (TR-FRET) compared against -8; not below it gives 1.0, below it gives 0.0.

Reported percent inhibition (TR-FRET) reaches at least -8 for "Clc1ccc2c(NCCCCN(Cc3ccccc3)Cc3ccc(Br)o3)ccnc2c1" ?
1.0

I'd appreciate it if you could say whether "Cc1ccc(S(=O)(=O)c2cnc3ccccc3c2N2CCN(c3ccc(F)cc3)CC2)cc1C" has percent inhibition (TR-FRET) at least equal to -8.
0.0

Is reported percent inhibition (TR-FRET) greater than or equal to -8 here: "O=C(CN1CCN(C(=O)c2ccccc2)CC1)Nc1c2c(nc3ccccc13)N(c1cccc(Cl)c1)CC2"
0.0

The reported numbers originate from paper PMC7529893.
